Target: DPP9 (Homo sapiens, UniProt Q86TI2)
Construct: made in house; host or cells: Sf9 insect cells (baculovirus)
Sequence (Q86TI2 1-892 isoform Q86TI2-2): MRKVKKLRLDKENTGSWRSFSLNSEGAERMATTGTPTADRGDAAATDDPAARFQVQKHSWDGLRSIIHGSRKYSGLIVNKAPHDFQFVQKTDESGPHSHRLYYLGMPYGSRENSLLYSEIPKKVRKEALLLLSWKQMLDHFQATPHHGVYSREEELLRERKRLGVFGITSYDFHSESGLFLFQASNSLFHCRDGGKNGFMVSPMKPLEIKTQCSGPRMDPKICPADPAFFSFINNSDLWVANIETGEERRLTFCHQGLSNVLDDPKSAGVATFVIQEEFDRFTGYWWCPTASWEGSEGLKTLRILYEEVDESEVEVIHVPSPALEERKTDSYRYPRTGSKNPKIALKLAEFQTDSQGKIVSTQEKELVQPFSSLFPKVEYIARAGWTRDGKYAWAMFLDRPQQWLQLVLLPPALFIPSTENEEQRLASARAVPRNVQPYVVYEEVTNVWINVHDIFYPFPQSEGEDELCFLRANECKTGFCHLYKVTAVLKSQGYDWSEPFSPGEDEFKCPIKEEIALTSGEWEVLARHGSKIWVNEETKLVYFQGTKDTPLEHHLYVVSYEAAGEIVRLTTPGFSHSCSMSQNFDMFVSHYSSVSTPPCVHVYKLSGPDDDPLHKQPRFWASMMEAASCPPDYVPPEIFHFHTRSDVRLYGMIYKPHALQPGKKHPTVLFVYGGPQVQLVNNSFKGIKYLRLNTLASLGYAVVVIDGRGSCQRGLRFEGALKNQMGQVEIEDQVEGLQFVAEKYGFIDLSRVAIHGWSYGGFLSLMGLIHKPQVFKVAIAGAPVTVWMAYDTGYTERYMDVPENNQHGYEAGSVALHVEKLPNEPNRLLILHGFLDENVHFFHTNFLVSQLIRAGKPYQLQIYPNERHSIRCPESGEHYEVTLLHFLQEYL
Assay: Kinetics assay, Ki for inhibition of DPP9 (GP-AMC hydrolysis)
Type: biochemical
Conditions: 25 nM DPP9, 0, 5 or 20 μM peptide, GP-AMC 0-500 μM; read-out: Ki (μM) for inhibition of DPP9
No end group written: not given here.
RESULT TYPE: Ki (µM)
Numbers only; they are read as µM.

As a guide, the following entries are already answered.
| SUBSTANCE | Ki [µM] |
| --- | --- |
| H-SLRFLYEGQRIADNH | 2.56 |
| SLRFLFEGQRIADNH | 7.32 |
| H-SLRFLFAGQRIADNH | 1.43 |

IN: Find Ki for H-SLRFLFEG on DPP9 (Homo sapiens, UniProt Q86TI2) and write it down.
OUT: 2

###

Listing: % DPP9 activity (Mean) of selected substances
Molecular target: DPP9 (Homo sapiens)
Construct: made in house; host or cells: Sf9 insect cells (baculovirus)
Test: Inhibition of GP-AMC hydrolysis by purified recombinant DPP9 at a single peptide concentration
Format: biochemical
Details: 25 nM DPP9, 0.2 mM GP-AMC, 10 μM peptide; DPP9 alone = 100.3
No end group written: not given here.
Numbers only; they are read as %.

As a guide, the following entries are already answered.
| SUBSTANCE | OBSERVED MEASUREMENT |
| --- | --- |
| Acet-SLRFLFEG | 90.74 |
| H-SLRFLYEG | 10.92 |
| TLRFLFEG (SLRFLFEG; EIL variant peptide) | 29.2 |
| RRRRSLRFLFEG (RRRRSLRFLYAG; EIL variant peptide) | 92.2 |
| H-SLRFLFEG | 24.08 |

IN: Find % DPP9 activity (Mean) for AAASLRFLYEG (SLRFLYEGAAA; EIL variant peptide) on DPP9 (Homo sapiens) and write it down.
OUT: 91.15

###

Target: DPP9 (Homo sapiens)
Construct: made in house; host or cells: Sf9 insect cells (baculovirus)
Test: Inhibition of GP-AMC hydrolysis by purified recombinant DPP9 at a single peptide concentration
Format: biochemical
Settings: 25 nM DPP9, 0.2 mM GP-AMC, 14 μM peptide; no peptide = 100
# note: boundary value 50% maps to false; % DPP9 activity (Mean) below it maps to true

See these solved cases before continuing.
| SUBSTANCE | LABEL CLASS |
| --- | --- |
| SLRFLFEAQRIADNH (LRFLFEGQRIADNH; EIL peptide variant) | true |
| SLRFLFEGQ (LRFLFEGQRIADN; EIL peptide variant) | true |
| FEGQRIADNH (SLRFLFEGQRIAD; EIL peptide variant) | false |
| SLRFLFEGQR (EIL peptide variant) | true |

Here is another substance to look at.
IN: Please state whether % DPP9 activity (Mean) is below 50% for FLFEGQRI (EIL peptide variant)
OUT: true

###

Target: DPP9 (Homo sapiens, UniProt Q86TI2)
Construct: made in house; host or cells: Sf9 insect cells (baculovirus)
Assay: Kinetics assay, Ki for inhibition of DPP9 (GP-AMC hydrolysis)
Assay type: biochemical
Details: read-out: Ki for DPP9
No end group written: not given here.
RESULT TYPE: Ki (µM)
Numbers only; they are read as µM.

| SUBSTANCE | MEASUREMENT TARGET | QUANTITY UNIT | OBSERVED MEASUREMENT |
| --- | --- | --- | --- |
| H-SLRFLYEG | DPP9 (Homo sapiens, UniProt Q86TI2) | µM | 0.4 |

The record that follows has no Ki shown yet.
IN: Identify measured Ki corresponding to SLRFLFEGQRIADNH
OUT: 7.4

###

Target: DPP9 (Homo sapiens)
Construct: made in house; host or cells: Sf9 insect cells (baculovirus)
Experiment: Inhibition of GP-AMC hydrolysis by purified recombinant DPP9 at a single peptide concentration
Format: biochemical
Details: 25 nM DPP9, 0.2 mM GP-AMC, 14 μM peptide; no peptide = 100
No end group written: not given here.
Listing: % DPP9 activity (Mean) of selected substances
Numbers only; they are read as %.

| SUBSTANCE | MEASUREMENT TARGET | QUANTITY UNIT | % DPP9 activity (Mean) |
| --- | --- | --- | --- |
| H-SLRFLYEGQRIADNH | DPP9 (Homo sapiens) | % | 13.06 |

IN: Identify measured % DPP9 activity (Mean) corresponding to H-SLRFLFEGQRIADNH
OUT: 27.45

IN: Identify measured % DPP9 activity (Mean) corresponding to LFEGQRIADNH (EIL peptide variant)
OUT: 67.77

IN: Identify measured % DPP9 activity (Mean) corresponding to H-SLRFLFAGQRIADNH
OUT: 5.093
